Listed next: entries and their corresponding pKd.
SYSTEM: T1, RSV postfusion F (postF), subtype B (respiratory syncytial virus, subtype B)
T1 construct: also called F ΔFP; Postfusion subtype B
T1 sequence (P13843 26-109, chain 1 of 2): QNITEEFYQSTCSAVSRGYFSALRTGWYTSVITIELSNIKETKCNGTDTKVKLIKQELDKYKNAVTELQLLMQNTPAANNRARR
T1 sequence (P13843 147-513, chain 2 of 2): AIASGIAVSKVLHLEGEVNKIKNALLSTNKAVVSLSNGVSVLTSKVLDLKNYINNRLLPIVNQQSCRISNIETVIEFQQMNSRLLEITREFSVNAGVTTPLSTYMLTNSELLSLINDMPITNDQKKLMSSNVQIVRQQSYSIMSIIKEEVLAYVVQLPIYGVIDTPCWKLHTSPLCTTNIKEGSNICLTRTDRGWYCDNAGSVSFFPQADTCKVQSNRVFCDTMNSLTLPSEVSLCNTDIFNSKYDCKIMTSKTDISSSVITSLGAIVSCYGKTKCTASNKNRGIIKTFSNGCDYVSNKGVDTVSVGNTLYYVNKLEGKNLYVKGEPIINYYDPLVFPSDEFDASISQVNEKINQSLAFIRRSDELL
EXPERIMENT: BLI, IgG
Bear in mind: pKd is minus log10 of a mol/L concentration; give just that figure.

ADI-14405 (antibody, V domains shown, also called Ab 71) VH: QVQLVQSGTEVKKPGASVKVSCKASGYTFTNYDISWVRQAPGQGLEWMGWISGSTGNTIYAQNLQGRLTMTTDTSTSTAYMELRSLRSDDTAIYYCARDNVGYASGNYFDYWGQGTLVTVSS VL: SYVLTQPPSVSVAPGKTARIPCGGNNIGSKSVHWYQQRPGQAPVLVIYYDSVRPSGIPERFSGSNSGNTATLTISTVEAGDEADFYCQVWDSSRDHEVFGGGTKLTVL	7.42

// next entry
Look up pKd of ADI-21043 (antibody, V domains shown) VH: QVQLVQSGAEVKKPGASVKVSCKASGYTFTSYGITWVRQAPGQGLEWMGWISTYNGKTNYAQKFKGRVTMTTDTSTSTAYVELTSLRSDDTAVYYCAREFPTRIVDSFYMDVWGKGTTVTVSS VL: SYELTQPPSVSVAPGQTARITCGGSNIGSETVHWYQQKPGQAPVLVVYGDSDRPSGIPERFSGSNSGNTATLTISRVEAGDEADYYCQVWDSRSDDFHVFGSGTKLTVL and report it. 8.71
